Where these numbers come from: PubChem BioAssay (NCI)

- Tested on: CCRF-CEM leukemia
- runDescription: NCI-60 one-dose screen, 48 h
- measurementConditions: 10 µM unless noted
The panel holds about 83,000 compounds, 20% with a hit somewhere; the sample as a whole holds those more often. Activity calls are given as the source filed them. Rule for the calls: active = growth percent below 10; inactive = the rest.
Permitted responses: active, inactive

State the result this test recorded for COc1ccc(/C=N\NC(=O)c2ccc3nc(-c4ccc(Cl)cc4)[nH]c3c2)cc1 .
inactive

Now consider CC1=C2[C@@H](CC1)[C@]1(C)O[C@@](C(C)C)(C[C@H]1OC(=O)CO)[C@H]2OC(=O)CCCc1ccccc1 and answer again.
inactive

Same question, CC1(C)CC[C@]2(CO)CC[C@]3(C)C(=CC[C@@H]4[C@@]5(C)CCNCC(C)(C)[C@@H]5CC[C@]43C)[C@@H]2C1 this time
inactive

* * *

- Test system: OVCAR-5 ovarian
- runDescription: NCI-60 one-dose screen, 48 h (100 = growth as untreated, 0 = no growth, -100 = all killed)
- measurementConditions: 10 µM unless noted
This is part of a sample that, as a whole, favours compounds with a hit. Of some 83,000 tested, about 20% had one in any assay. Calls of active or inactive are those of the source. Rule for the calls: active = growth percent below 10; inactive = the rest.
assayReadout: growth

// worked examples, growth included
Could you share which growth value was measured for Cn1cc(-c2csc(-c3cn(CCO)c4ccc(F)cc34)n2)c2cccnc21 ?
65.6% (inactive)

Try the compound COc1ccc2c(c1)C(c1c[nH]c3ccccc13)(c1c[nH]c3ccccc13)CCO2
76.6% (inactive)

Next up: COC(=O)c1nc(-c2ccccc2)oc1S(=O)(=O)NCC(c1ccc(Cl)cc1)N1CCCCC1 (centres undefined)
90.8% (inactive)

Can you handle COc1ccc(S(=O)(=O)N(C)c2oc(-c3ccc(Cl)cc3)nc2C#N)cc1 next?
94.6% (inactive)

Now consider CN1CCN(Cc2ccc(NC(=O)c3cncc(C#Cc4cnc(N)c5ncccc45)c3)cc2Cl)CC1 and answer again.
95.1% (inactive)

---
For the compound shown here, O=C(Nc1ncc(Cc2cc(C(F)(F)F)ccc2Cl)s1)C(=S)N1CCOCC1 , give the reported growth.
94.7% (inactive)

What about this compound? COc1cc2c(c(OC)c1OC)CCC(c1cccc(C(=O)Nc3ccc([N+](=O)[O-])cc3)c1)O2 (centres undefined)
84.3% (inactive)

And the next one, COc1ccc(N/N=C/c2ccc3c(c2)Sc2ccccc2N3C)cc1 ?
53.3% (inactive)

Same for O=C1NCCS(=O)(=O)/C1=C\C=C\c1cccc(C(F)(F)F)c1
48.4% (inactive)

What do you get for Cc1ccc2c(n1)C[C@H](C(C)(C)O)CC[C@H]2C ?
94.7% (inactive)

* * *

- System: RXF 393 renal
- runDescription: NCI-60 one-dose screen, 48 h
- measurementConditions: 10 µM unless noted
About 83,000 compounds went through this panel and 20% of them were active in at least one assay; those are over-represented in the sample as a whole. The source made the active and inactive calls. How the source made its calls: active means growth percent below 10; inactive means the rest.
Parameter call: string, one of T (active), F (inactive)

For orientation, consider the following solved cases.
Lab log entry: C[C@H]1c2ccccc2CN1CCCOc1cc2c(cc1OCC1CC1)C1(CCCC1)C(N)=N2 — outcome as called in the assay?
F

Now the molecule C#Cc1cccc(Nc2ncnc3ccc(-c4cnc(Cl)c(NS(C)(=O)=O)c4)cc23)c1
T

Let us now turn to CC/C(=C(/c1ccc(Cl)cc1)c1ccc(OCCN(CC)CC)cc1)c1ccc(OC)cc1
F

New cases:
Please indicate how the test categorized C=C1C(=O)O[C@H]2[C@H]1CC/C(COC(=O)NCc1ccc(Cn3c(=O)sn(CCCC)c3=O)cc1)=C\CC[C@@]1(C)O[C@@H]21 .
F
